Source listed as patent US20220017636A1.

- SUBJECT OF TEST: T1, DPYSL4 peptide complexed with HLA-A*02:01 on T2 cells (human)
- T1 construct: whole, on cells
- TEST: flow cytometry, peptide-loaded T2 cells;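 note: binding of single-chain Fv antibody constructs, raised in XenoMouse, to peptide-pulsed T2 cells measured by flow cytometry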
Each entry below lists one item and its recorded Signal/background value.
Returns: the value as a bare number; no unit string appended.

Worked cases, Signal/background given:
- 18182-H12 (scFv, scFv in bacterial lysate, detected with anti-Flag M2) scFv: EVQLLESGGGLVQPGGSLRLSCAASGFTFSSYAMSWVRQAPGKGLEWVSTISGSGGGTYYADSVKGRFTISRDNSKNTLYLQMNSLRAEDTAVYYCATGKGVHLGFDYWGQGTLVTVSSGGGGSGGGGSGGGGSELMLTQPHSVSVAPGQTARITCGGNNIGSKSVHWYQQKPGQAPVLVVYDDNDRPSGIPERFSGSNFGNTATLIISRVEAGDEADYYCQVWDSSSDHVVFGGGTKLTVL: 1
- 18182-E5 (scFv, scFv in bacterial lysate, detected with anti-Flag M2) scFv: EVQLLESGGGLVQPGGSLRLSCAASGFTFSSYAMSWVRQAPGKGLEWVSTISGSGGGTYYADSVKGRFTISRDNSKNTLYLQMNSLRAEDTAVYYCATGKGVHLGFDYWGQGTLVTVSSGGGGSGGGGSGGGGSELVLTQPPSVSVAPGQTARITCGGNNIGSKSVHWHQQKPGQAPVLVVYDDNDRPSGIPERFSGSNSGNTATLTISRVEAGDEADYYCQVWDYSSDHVVFGGGTKLTVL: 1

Turning to the following binder.
Data point: 18181-A6 (scFv, scFv in bacterial lysate, detected with anti-Flag M2) scFv: EVQLLESGGGLVQPGGSLRLSCAASGFTFSNAWMSWVRQAPGKGLEWVGRIKGNTYGGTTDYAAPVKGRFTISRDDSKNTLYLQMNSLKTEDTAVYYCTTPSYSGSYYNYFSVMDVWGQGTTVTVSSGGGGSGGGGSGGGGSELVMTQSPSSLSASVGDRVTITCRASQSISSYLNWYQQKPGRAPKLLIFAASSLQGGVPSRFSGSGSGTDFTLTISSLQPEDFATYYCQQTYSMPFTFGPGTKLEIK ; Signal/background = 1
